Reference source for all entries: PubChem BioAssay (NCI)

# System: UACC-62 melanoma
# Assay Details: NCI-60 one-dose screen, 48 h
# Condition Details: 10 µM unless noted
The panel holds about 83,000 compounds, 20% with a hit somewhere; the sample as a whole holds those more often. Active and inactive are the calls of the source. The calls were made as follows: active = growth percent below 10; inactive = the rest.
Respond using exactly one of the listed classes: 1 for active, -1 for inactive

Reference set, count: 5
Oc1c(Cl)cc(Cl)cc1CNc1nccnn1 = -1
Nc1ccc(N2CCOCC2)cc1 = -1
NC(=S)N/N=C/c1ccc(OCc2ccccc2)cc1 = -1
CCN(CC)Cc1cc(Nc2c3ccccc3nc3cc(Cl)ccc23)ccc1O = 1
CC#Cc1nc2ccccc2c(=O)[nH]1 = -1

How did this test come out for O=C(COCc1c(-c2ccccc2)no[n+]1[O-])Nc1ccc(C(=O)/C=C/c2ccc3c(c2)OCO3)cc1 ? -1

Cool, now O=S(=O)(Nc1ccc(F)c(Cl)c1)c1ccc(-c2cnc(C3CC3)o2)cc1 -1

Cool, now COc1ccc(C(=O)/C=C/c2c[n+](=O)c3ccc(F)cc3n2[O-])cc1 -1

Cool, now NCc1cn2cc(Cl)sc2n1 -1

###

# Test system: HOP-92 NSCLC
# Assay Details: NCI-60 one-dose screen, 48 h (100 = growth as untreated, 0 = no growth, -100 = all killed)
# Condition Details: 10 µM unless noted
# Experimental: Growth inhibition of the HOP-92 human Non-Small Cell Lung tumor cell line is measured as a screen for anti-cancer activity. Cells are grown in 96 well plates and exposed to the test compound for 48 hours. Compounds are tested at a single concentration, which is 10^-5 M for most compounds. The reported endpoint is percent growth (GI% or GIPRCNT), where numbers from 0 - 100% represent growth inhibition, and numbers from -100% - 0 represent cell death. […]
This is part of a sample that, as a whole, favours compounds with a hit. Of some 83,000 tested, about 20% had one in any assay.
Readout Kind: growth (%)
Give just the number in %; leave the unit off.

O=C1C2CC=CCC2C(=O)N1CNc1ccc(Cl)cc1 (centres undefined) = 62.9

Which measured growth value corresponds to CCCCCCCCSC1=CC(=O)C(OC)=C(OC)C1=O ? -31.3

Cool, now CCOC(=O)c1c2c(n3ccc(NC(=O)CCN(CC)CC)cc13)C(=O)c1ncccc1C2=O 82.1

###

# System: UO-31 renal
# Assay Details: NCI-60 one-dose screen, 48 h (100 = growth as untreated, 0 = no growth, -100 = all killed)
# Condition Details: 10 µM unless noted
This is part of a sample that, as a whole, favours compounds with a hit. Of some 83,000 tested, about 20% had one in any assay. Active and inactive are the calls of the source. The calls were made as follows: active = growth percent below 10; inactive = the rest.
In this section, each of the compounds is paired with its reported growth.

C[C@@]1(N2C(=O)OC[C@@H]2c2ccccc2)C(=O)N([C@H](CC(=O)N2CCC(N3CCCCC3)CC2)C(=O)NCc2cccc(C(F)(F)F)c2)[C@@H]1/C=C/c1ccccc1 = 57.8% (inactive)

So what growth did CSc1[nH]c2ncnc(N)c2c1C#N get with UO-31 renal? 76% (inactive)

Cool, now N#Cc1c(N)nc(N)nc1Nc1ccc(Br)cc1 65.6% (inactive)

Cool, now CCCCCCCCOC(=O)CC[C@@H](C)[C@H]1CC[C@H]2[C@@H]3[C@H](OC(=O)CCN)C[C@@H]4C[C@H](OC(=O)CCN)CC[C@]4(C)[C@H]3C[C@H](OC(=O)CCN)[C@]12C 105% (inactive)
